Readings of recombinant UMI read abundance (log10) for the listed sequences
test.description: recombinant UMI read abundance after kanamycin selection (control-corrected) (log10(CPM+1)); higher = more efficient recombination; extreme values may be limits of the assay; sequences stand for … in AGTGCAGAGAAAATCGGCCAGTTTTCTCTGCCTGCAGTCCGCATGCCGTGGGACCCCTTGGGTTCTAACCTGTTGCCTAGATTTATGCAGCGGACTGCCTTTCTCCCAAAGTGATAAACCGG…AGGTTGGTTTCACT; site = the 11-nt donor;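 also: IS621 bridge recombinase in Escherichia coli cells against a fixed T5 target plasmid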
In your answer, state the number alone without any accompanying words.

Need recombinant UMI read abundance (log10) of CGAAAGGCATGGACCGGTTTTCCCGGTAATCCGTATTTGCT (site CGAAAGGCTAG) , thanks.
2.39

Look up recombinant UMI read abundance (log10): ATCCAAGCATGGACCGGTTTTCCCGGTAATCCGTATTTGTG (site ATCCAAGCTCC)
0.0133
